molecular target: Prothrombin (Bos taurus, UniProt P00735); assay: Concentration at which the clotting time was prolonged by twice that of the control by inhibiting thrombin; conditions: read-out: I50
readout kind: pIC50
Give bare numbers, as −log10 of the molar value.

Answered examples (5):
COc1ccc2cc(S(=O)(=O)NC(CCCN=C(N)N)C(=O)N3CCCCC3C(=O)O)ccc2c1 (stereo not drawn): 4.00
Cc1ccc2cc(S(=O)(=O)NC(CCCN=C(N)N)C(=O)N3CCC(C(C)C)CC3C(=O)O)ccc2c1 (stereo not drawn): 6.46
CCCCN(CC(=O)O)C(=O)C(CCCN=C(N)N)NS(=O)(=O)c1ccc2cc(OC)c(OC)cc2c1 (stereo not drawn): 6.52
COCCCN(CC(=O)O)C(=O)C(CCCN=C(N)N)NS(=O)(=O)c1ccc2cc(OC)c(OC)cc2c1 (stereo not drawn): 5.30
CCCN(CC(=O)O)C(=O)C(CCCN=C(N)N)NS(=O)(=O)c1ccc2cc(OC)c(OC)cc2c1 (stereo not drawn): 5.10

Fill in pIC50 for each of the 2 compounds listed.
1. COCCN(CC(=O)O)C(=O)C(CCCN=C(N)N)NS(=O)(=O)c1cccc2c(N(C)C)cccc12 (stereo not drawn)
2. CCCCN(CC(=O)O)C(=O)C(CCCN=C(N)N)NS(=O)(=O)c1cccc2c(OC)cccc12 (stereo not drawn)

1: 5.30; 2: 5.40

Short answer for Cc1ccc2ccc(S(=O)(=O)NC(CCCN=C(N)N)C(=O)N(CC(=O)O)CC3CCCO3)cc2c1 (stereo not drawn) : pIC50 was 6.70
